Field: IC50. System: UniProt:P36888. Provenance: assorted publications.

Problem: Dear colleague, I am looking for the recorded IC50 of the following molecule: `CCCCNc1ncc2c(OC3CCNCC3)ncc([C@H]3CC[C@H](O)CC3)c2n1`
Solution: ≤ 0.1 µM

Problem: Dear colleague, I am looking for the recorded IC50 of the following molecule: `COc1ccc(-c2n[nH]c3c2Cc2sc(-c4ccccc4)cc2-3)cc1`
Solution: < 0.1 µM

Problem: Dear colleague, I am looking for the recorded IC50 of the following molecule: `COC[C@H](C)Nc1ncc2c(-c3ccnc(N4CC5(COC5)C4)c3)cc([C@H]3CC[C@H](O)CC3)n2n1`
Solution: 0.1 to 1 µM

Problem: Dear colleague, I am looking for the recorded IC50 of the following molecule: `Nc1cc(Oc2ccc(NC(=O)Nc3cc(CN4CCC4)cc(C(F)(F)F)c3)cc2)ncn1`
Solution: 0.153 µM

Problem: Dear colleague, I am looking for the recorded IC50 of the following molecule: `COC[C@H](C)Nc1ncc2c(-c3ccnc(N4CCOCC4=O)c3)cc([C@H]3CC[C@H](O)CC3)n2n1`
Solution: 0.1 to 1 µM

Problem: Dear colleague, I am looking for the recorded IC50 of the following molecule: `COC[C@H](C)Nc1ncc2c(-c3ccnc(O[C@@H]4CCCN(C)C4)c3)cc([C@H]3CC[C@H](O)CC3)n2n1`
Solution: 0.1 to 1 µM

Problem: Dear colleague, I am looking for the recorded IC50 of the following molecule: `CCc1nc2c(N)ncc(-c3cnn(C4CCN(CC(F)(F)F)CC4)c3)c2nc1N[C@@H]1CC[C@H](O)C1`
Solution: ≤ 0.01 µM

Problem: Dear colleague, I am looking for the recorded IC50 of the following molecule: `Nc1ncnc2c1c(-c1ccc(Oc3ccccc3)cc1)nn2C[C@H]1SSC[C@@H]1O`
Solution: 0.1 to 0.999 µM

Problem: Dear colleague, I am looking for the recorded IC50 of the following molecule: COC[C@H](C)Nc1ncc2c(OC3CCOCC3)ncc(C3CCCCN3C)c2n1 (stereo partly drawn)
Solution: 1 to 10 µM

Problem: Dear colleague, I am looking for the recorded IC50 of the following molecule: `c1cc(-c2n[nH]c3c2Cc2sccc2-3)ccn1`
Solution: < 0.1 µM

Problem: Dear colleague, I am looking for the recorded IC50 of the following molecule: CCC1CN(c2ccc(C#N)nn2)CCC1Nc1nc(Nc2ccn3c(C)cnc3c2)ncc1Cl (stereo not drawn)
Solution: 0.591 µM

Problem: Dear colleague, I am looking for the recorded IC50 of the following molecule: `CN1CCN(c2ccc3nc(-c4c(N)c5cscc5[nH]c4=O)[nH]c3c2)CC1`
Solution: ≤ 0.05 µM

* * *

Field: IC50. System: Receptor-type tyrosine-protein kinase FLT3 (Homo sapiens). Provenance: assorted publications.

Problem: Look up IC50 with Receptor-type tyrosine-protein kinase FLT3 (Homo sapiens) for this compound: `COc1ccc2sc3c(NCCCNCCO)nc4ccccc4c3c(=O)c2c1`
Solution: 501 to 1000 nM

Problem: Look up IC50 with Receptor-type tyrosine-protein kinase FLT3 (Homo sapiens) for this compound: `CCC[C@@H](C)Nc1ncc2c(OC3CCNCC3)ncc([C@H]3CC[C@H](O)CC3)c2n1`
Solution: 1000 to 10000 nM

Problem: Look up IC50 with Receptor-type tyrosine-protein kinase FLT3 (Homo sapiens) for this compound: `CNC(=O)c1cc(-c2cc([C@H]3CC[C@H](O)CC3)n3nc(N[C@@H](C)CC(F)(F)F)ncc23)ccn1`
Solution: ≤ 100 nM

Problem: Look up IC50 with Receptor-type tyrosine-protein kinase FLT3 (Homo sapiens) for this compound: `Nc1cc(Oc2ccc(NC(=O)Nc3ccc(-c4cccnc4)c(C(F)(F)F)c3)cc2)ncn1`
Solution: 120 nM
